Taken from patent US10941157B2.

IC90 values, listed per item
# System: Fusarium virguliforme (Fv)
# assay_procedure: In vitro pathogen growth inhibition assay, Fv
# Format: cell-based
# measurement_setup: concentration sufficient to ≥90% inhibition of growth, 48 hours vs 2% DMSO control, read-out: Compound Concentration (ppm) for ≥90% inhibition, Fv

- compound_smiles: "COc1ccc(F)cc1[C@@H](Cn1c(=O)n(C(C)(C)C(=O)NC(C)C)c(=O)c2c(C)c(-n3nccn3)sc21)OCCCO"
  units: "mg/L"
  relational_operator: "="
  IC90: 50
- compound_smiles: "COc1ccc(F)cc1[C@H](Cn1c(=O)n(C(C)(C)C(=O)N2CCCC2)c(=O)c2c(C)c(-n3cccn3)sc21)OCCC#N"
  units: "mg/L"
  relational_operator: "="
  IC90: 50
- compound_smiles: "Cc1c(-n2cccn2)sc2c1c(=O)n(C(C)(C)C(=O)NC(C)C)c(=O)n2CCc1cc(F)ccc1OCCC#N"
  units: "mg/L"
  relational_operator: "="
  IC90: 10
- compound_smiles: "CCOC(=O)c1sc2c(c1C)c(=O)n([C@@H](C)C(N)=O)c(=O)n2C[C@H](OCCC#N)c1cc(F)ccc1OC"
  units: "mg/L"
  relational_operator: ">"
  IC90: 50
- compound_smiles: "COc1ccc(F)cc1[C@](O)(CCO)Cn1c(=O)n(C(C)(C)C(=O)NC(C)C)c(=O)c2c(C)c(-n3nccn3)sc21"
  units: "mg/L"
  relational_operator: ">"
  IC90: 50
- compound_smiles: "COc1ccccc1[C@@H](O)Cn1c(=O)n(C(C)(C)C(=O)N2CCCC2)c(=O)c2c(C)c(-n3nccn3)sc21"
  units: "mg/L"
  relational_operator: "="
  IC90: 10
- compound_smiles: "CCNC(=O)C(C)(C)n1c(=O)c2c(C)c(-n3nccn3)sc2n(C[C@@H](OC(C)=O)c2cc(F)ccc2OC)c1=O"
  units: "mg/L"
  relational_operator: ">"
  IC90: 50
- compound_smiles: "CCNC(=O)[C@H](C)n1c(=O)c2c(C)c(-n3cccn3)sc2n(C[C@H](OCCC#N)c2cc(F)ccc2OC)c1=O"
  units: "mg/L"
  relational_operator: ">"
  IC90: 50
- compound_smiles: "CCNC(=O)C(C)(C)n1c(=O)c2c(C)c(-n3nccn3)sc2n(C[C@@H](O)c2cc(F)ccc2OC)c1=O"
  units: "mg/L"
  relational_operator: "="
  IC90: 50
- compound_smiles: "COc1ccc(F)cc1[C@H](Cn1c(=O)n([C@@H](C)C(=O)NC2CCC2)c(=O)c2c(C)c(-n3cccn3)sc21)OCCC#N"
  units: "mg/L"
  relational_operator: ">"
  IC90: 50
- compound_smiles: "COc1ccc(F)cc1[C@H](Cn1c(=O)n(C(C)(C)C(=O)NC(C)C)c(=O)c2c(C)c(-n3nccn3)sc21)OCCN(C)C"
  units: "mg/L"
  relational_operator: ">"
  IC90: 50
- compound_smiles: "COc1ccc(F)cc1[C@H](Cn1c(=O)n(C(C)(C)C(N)=O)c(=O)c2c(C)c(-n3cccn3)sc21)OCCC#N"
  units: "mg/L"
  relational_operator: "="
  IC90: 50
- compound_smiles: "CCNC(=O)C(C)(C)n1c(=O)c2c(C)c(C(=O)OCC)sc2n(C[C@H](OC2CCOCC2)c2ccccc2OC)c1=O"
  units: "mg/L"
  relational_operator: "="
  IC90: 10

---

# Tested on: Botrtyis cinerea (Bc)
# assay_procedure: In vitro pathogen growth inhibition assay, Bc
# Type: cell-based
# measurement_setup: 48 h, ≥90% growth inhibition; 48 hours; vs 2% DMSO control; read-out: Compound Concentration (ppm) sufficient for ≥90% inhibition of Bc
quantity_kind: IC90 (µg/mL)

- compound_smiles: "COc1ccc(F)cc1[C@@H](O)Cn1c(=O)n([C@H](C)C(=O)N(C)C(C)C)c(=O)c2c(C)c(-n3nccn3)sc21"
  quantitative_result: 0.4
- compound_smiles: "COc1ccc(F)cc1[C@H](Cn1c(=O)n([C@H](C)C(=O)NC(C)C)c(=O)c2c(C)c(-n3nccn3)sc21)OCCC#N"
  quantitative_result: 0.4
- compound_smiles: "CCOC(=O)c1sc2c(c1C)c(=O)n(C(C)(C)C(=O)N1CCCC1)c(=O)n2C[C@H](O)c1cc(F)ccc1OC"
  quantitative_result: 2
- compound_smiles: "Cc1c(-n2nccn2)sc2c1c(=O)n(C(C)(C)C(=O)NC(C)C)c(=O)n2CCc1cc(F)ccc1OC(C)C"
  quantitative_result: 2
- compound_smiles: "CCNC(=O)C(C)(C)n1c(=O)c2c(C)c(C(=O)OCC)sc2n(C[C@H](OCCC#N)c2cc(F)ccc2O)c1=O"
  quantitative_result: 10
- compound_smiles: "COCCO[C@@H](Cn1c(=O)n(C(C)(C)C(=O)NC2CCCCC2)c(=O)c2c(C)c(-n3cccn3)sc21)c1cc(F)ccc1OC"
  quantitative_result: 10

---

# Tested on: Diplodia maydis (Dm)
# assay_procedure: In vitro pathogen growth inhibition assay, Dm
# Assay type: cell-based
# measurement_setup: Stenocarpella maydis, 48 h, concentration sufficient to ≥90% inhibition of growth; 48 hours vs 2% DMSO control; read-out: Compound Concentration (ppm) for ≥90% inhibition, Dm
quantity_kind: IC90

- compound_smiles: "COc1ccc(F)cc1[C@H](Cn1c(=O)n(C(C)(C)C(=O)NC(C)C)c(=O)c2c(C)c(-n3nccn3)sc21)OC(=O)CO"
  quantity_kind: "IC90"
  result: "> 50 µg/mL"
- compound_smiles: "COc1ccccc1[C@@H](O)Cn1c(=O)n(C(C)(C)C(=O)N2CCCC2)c(=O)c2c(C)c(-n3nccn3)sc21"
  quantity_kind: "IC90"
  result: "> 50 µg/mL"
- compound_smiles: "CCOC(=O)c1sc2c(c1C)c(=O)n(C(C)(C)C(N)=O)c(=O)n2C[C@H](OC1CCOCC1)c1ccccc1OC"
  quantity_kind: "IC90"
  result: "10 µg/mL"
- compound_smiles: "COc1ccc(F)cc1[C@@H](CCCC#N)Cn1c(=O)n(C(C)(C)C(=O)NC(C)C)c(=O)c2c(C)c(-n3ccnn3)sc21"
  quantity_kind: "IC90"
  result: "> 50 µg/mL"
- compound_smiles: "COc1ccc(F)cc1[C@@H](O)Cn1c(=O)n(C(C)(C)C(N)=O)c(=O)c2c(C)c(-n3nccn3)sc21"
  quantity_kind: "IC90"
  result: "> 50 µg/mL"
- compound_smiles: "COc1ccc(F)cc1[C@H](Cn1c(=O)n(C(C)(C)C(=O)NC(C)C)c(=O)c2c(C)c(-n3nccn3)sc21)OCCN(C)C"
  quantity_kind: "IC90"
  result: "> 50 µg/mL"
- compound_smiles: "CCNC(=O)C(C)(C)n1c(=O)c2c(C)c(-n3nccn3)sc2n(C[C@@H](O)c2cc(F)ccc2OC)c1=O"
  quantity_kind: "IC90"
  result: "50 µg/mL"
- compound_smiles: "CCOC(=O)c1sc2c(c1C)c(=O)n([C@H](C)C(N)=O)c(=O)n2C[C@H](OCCC#N)c1cc(F)ccc1OC"
  quantity_kind: "IC90"
  result: "> 50 µg/mL"
- compound_smiles: "CC(=O)Oc1ccc(F)cc1[C@@H](Cn1c(=O)n(C(C)(C)C(=O)NC(C)C)c(=O)c2c(C)c(-n3nccn3)sc21)OCCC#N"
  quantity_kind: "IC90"
  result: "> 50 µg/mL"
- compound_smiles: "COc1ccc(F)cc1[C@H](Cn1c(=O)n(C(C)(C)C(=O)N2CCCC2)c(=O)c2c(C)c(-n3cccn3)sc21)OCCC#N"
  quantity_kind: "IC90"
  result: "50 µg/mL"
- compound_smiles: "CCNC(=O)C(C)(C)n1c(=O)c2c(C)c(C(=O)OCC)sc2n(C[C@H](OC2CCOCC2)c2ccccc2OC)c1=O"
  quantity_kind: "IC90"
  result: "10 µg/mL"
- compound_smiles: "Cc1c(-n2cccn2)sc2c1c(=O)n(C(C)(C)C(=O)NC(C)C)c(=O)n2CCc1cc(F)ccc1OCCO"
  quantity_kind: "IC90"
  result: "> 50 µg/mL"

---

# System: Phytophthora capsici (Pc)
# assay_procedure: In vitro pathogen growth inhibition assay, Pc
# Type: cell-based
# measurement_setup: 48 h, ≥90% inhibition, 48 hours vs 2% DMSO control, read-out: Compound Concentration (ppm) sufficient for ≥90% inhibition of growth, Pc

- compound: "COc1ccc(F)cc1[C@H](Cn1c(=O)n(C(C)(C)C(=O)NC2CC2)c(=O)c2c(C)c(-n3nccn3)sc21)OC(C)C [Compound I-078]"
  IC90: "> 50 µg/mL"
- compound: "COc1ccccc1[C@H](Cn1c(=O)n(C(C)(C)C(=O)N2CCCCC2)c(=O)c2c(C)c(-c3ncco3)sc21)O[C@H]1CC[C@@H](O)CC1 [Compound I-110]"
  IC90: "> 50 µg/mL"
- compound: "COc1ccc(F)cc1[C@H](Cn1c(=O)n([C@@H](C)C(=O)NC(C)C)c(=O)c2c(C)c(-n3nccn3)sc21)OC(C)C [Compound I-057]"
  IC90: "50 µg/mL"
